Reference source for all entries: patent US9296716B2

# maps each entry to its IC50
target: AR-LBD wt (Homo sapiens, UniProt P10275); assay: Lanthascreen TR-FRET AR coactivator (D11-FxxLF) assay, AR-LBD wt; type: biochemical; conditions: TR-FRET, D11-FxxLF peptide, DHT = EC80; read-out: Activity (AR wt TR-FRET)
Sequence (P10275 669-900 limits assumed): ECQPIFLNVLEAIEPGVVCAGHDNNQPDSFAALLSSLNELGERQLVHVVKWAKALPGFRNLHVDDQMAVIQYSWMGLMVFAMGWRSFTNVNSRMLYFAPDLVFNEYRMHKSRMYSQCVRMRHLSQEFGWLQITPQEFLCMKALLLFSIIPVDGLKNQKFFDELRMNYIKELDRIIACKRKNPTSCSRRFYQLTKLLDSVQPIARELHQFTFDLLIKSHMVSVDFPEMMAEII

mol: COc1ccc(O)c(/C=N/NC(=O)c2cc3ccccc3cc2O)c1
result.value: 52.9 µM

mol: Cc1cccc(/C=N/NC(=O)c2cc3ccccc3cc2O)c1
result.value: > 100 µM

mol: O=C(N/N=C/c1cc(O)ccc1O)c1cc2ccccc2cc1O
result.value: 39.9 µM

mol: CC(C)Oc1ccc(/C=N/NC(=O)c2cc3c(ccc4ccccc43)o2)cc1
result.value: > 100 µM

mol: COc1cc2ccccc2cc1C(=O)N/N=C/c1ccccc1O
result.value: > 100 µM

mol: COc1cc(/C=N/NC(=O)c2cc3ccccc3cc2O)cc(OC)c1O
result.value: > 100 µM

mol: COc1ccc(/C=N/NC(=O)c2cc3ccccc3cc2O)cc1O
result.value: > 100 µM

mol: O=C(N/N=C/c1cc(Cl)ccc1O)c1cc2ccccc2cc1O
result.value: 10.3 µM

Lab note: next compound to report on.
Challenge: Consider the compound "CCN(CC)c1ccc(/C=N/NC(=O)c2cc3ccccc3cc2O)cc1" and give its measured IC50.
Response given: > 100 µM
